# Test system: Sam68 (KHDRBS1)
# protocol: Sam68 small-molecule binders, primary screen, biochemical, small-molecule microarray, 635 nm fluorescence (AID 1125);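 further: score merges 667 nm channel intensity with signal to noise over triplicate slides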
# condition-parameters: small-molecule microarray binding, higher = more signal
Listed below: composite z-score values for each entry.
Give the value as a plain number.

compound | measured-endpoint | reported-value
C=CCC(OC(C)=O)[C@@H]1[C@@H](N(Cc2cccc3ccccc23)C(=O)Cc2ccc(OC)cc2)c2cc(OCCCO)ccc2N1C(=O)c1ccc2ccccc2n1 (stereo partly drawn) | composite z-score | 0.404

q: Give recorded composite z-score with Sam68 (KHDRBS1) for the following compound: COc1ccc([Si](C)(C)[C@@H]2[C@@H](CC(=O)N3Cc4ccccc4C[C@H]3CO)O[C@]3(C(=O)N(Cc4cccc(N5C(=O)c6cccc7cccc5c67)c4)c4ccccc43)[C@H]2C)cc1
a: 0.817

q: Give recorded composite z-score with Sam68 (KHDRBS1) for the following compound: C[C@H]1NC(=O)[C@@]23C(=O)N[C@@H](Cc4ccccc4)C2[C@H](C)[C@@]2(C)O[C@H]2C3/C=C/C/C=C\CNC(=O)[C@H](Cc2ccccc2)NC1=O (stereo partly drawn)
a: 0.127

---

# protocol: binders of probe aFSTL3 on microarray, primary screen, stem cell growth factor project, biochemical, small-molecule microarray, fluorescence 635/667 (AID 1064);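 further: measures binding of the biotinylated anti-FSTL3 antibody to printed compounds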
# condition-parameters: higher = more signal
measured-endpoint: composite z-score

Below, 5 molecules whose answers are already recorded.
molecule | composite z-score
[N-]=[N+]=Nc1ccccc1[C@@H]1OC(c2ccc(OCCCO)cc2)=N[C@]1(Cc1ccccc1)C(=O)NCC(O)CO (some centres undefined) | 1.45
O=C1O[C@@H](c2ccccc2)[C@@H](c2ccccc2)N2[C@@H](c3ccc(O)cc3)[C@]3(C(=O)Nc4ccc(C#CC5=CCCCC5)cc43)[C@@H](C(=O)NC[C@H](O)c3ccccc3)[C@H]12 | 0.135
COC(=O)c1c(CC[C@@H](CO)NC(=O)N[C@H](Cn2cc(C3(O)CCCCC3)nn2)C(C)C)oc(C(C)=O)c1C(=O)OC | -0.413
CC(=O)NCCCC[C@@H]1NC(=O)[C@@H]2C[C@H](C(=O)NCCCC[N+](C)(C)C)[C@H](c3ccc(O)cc3)N2C1=O | -0.235
CN(C)CCCNC(=O)[C@@]1(C)c2ccccc2C(=O)N(Cc2ccccc2)[C@H]1c1ccc(CO)cc1 | 1.2

q: Recorded composite z-score of COC(=O)[C@@]1(Cc2ccc(OC)cc2)[C@H]2c3cc(C(=O)N(C)C)n(C[C@H](O)CO)c3C[C@H]2CN1C(=O)c1ccccc1 , please.
a: 1.37

q: Recorded composite z-score of COCCOC(=O)N1C(=O)[C@@]2(c3ccccc31)[C@H](C(=O)N1CCN(c3ncccn3)CC1)[C@H]1C(=O)O[C@H](c3ccccc3)[C@H](c3ccccc3)N1[C@@H]2c1ccc(O)cc1 , please.
a: 0.149

q: Recorded composite z-score of CC(C)[Si](C#CCCCC#N)(O[C@H](c1ccccc1)c1cn([C@H](CO)Cc2ccccc2)nn1)C(C)C , please.
a: -0.436

q: Recorded composite z-score of CC(C)OC(=O)C=C1C[C@@H](c2ccc(C(F)(F)F)cc2)O[C@@H](c2ccc(C(F)(F)F)cc2)O1 , please.
a: -0.187

q: Recorded composite z-score of Cn1cccc1C(O)C1C=CC2C(=O)NC(=O)C2N1Nc1ccc(Cl)cc1Cl (centres undefined) , please.
a: 0.435

q: Recorded composite z-score of CC(C)N1C(=O)C[C@@](C(=O)NCCCN(C)C)(c2ccc([N+](=O)[O-])cc2)[C@H]1c1ccc(CO)cc1 , please.
a: -0.153

q: Recorded composite z-score of COC(=O)c1c2oc(c1C(=O)OC)C(=O)N(Cc1ccccc1)Cc1cn(nn1)C[C@H](Cc1ccccc1)NC(=O)N[C@H](CO)CC2 , please.
a: -0.462

q: Recorded composite z-score of COc1ccc([Si](C)(C)[C@H]2[C@H](CCn3cc([C@H](O)c4ccccc4)nn3)O[C@@]3(C(=O)N(Cc4ccc(N5C(=O)c6cccc7cccc5c67)cc4)c4ccccc43)[C@@H]2C)cc1 , please.
a: 0.193

q: Recorded composite z-score of O[C@@H](Cc1ccccc1)[C@@H](/C=C/C1CC1)N(CC#Cc1ccccc1)Cc1cccc(Cl)c1 , please.
a: 1.39

---

Listed below: z-score values for each entry.
# protocol: adipocyte viability effects, profiling panel, cell-based, 3T3-L1 adipocytes, calcein-AM fluorescence, 48 h, basal (AID 1163); further: test concentration not given here
# condition-parameters: 3T3-L1 adipocytes viability, higher = more signal
Give the value as a plain number.

Below, 5 compounds whose answers are already recorded.
compound | z-score
COc1cc(OC)c(C(O)C2C=CC3C(=O)N(C)C(=O)C3N2NC(=O)OC(C)(C)C)cc1Br (configuration not stated) | -0.23
C=CCC(OC(C)=O)[C@@H]1[C@@H](N(Cc2cc3ccccc3o2)C(=O)c2ccc(C)cc2)c2cc(OCCCO)ccc2N1C(=O)Cc1ccc(OC)cc1 (some centres not stated) | 0.426
COCCOC(=O)N1C(=O)[C@@]2(c3cc(C#CC4=CCCCC4)ccc31)[C@H](c1ccc(OCCO)cc1)N1[C@H](c3ccccc3)[C@H](c3ccccc3)OC(=O)[C@H]1[C@@H]2C(=O)NC[C@H](O)c1ccccc1 | 0.72
O=C1O[C@H](c2ccccc2)[C@H](c2ccccc2)N2[C@H]1[C@@H](C(=O)N1CCN(c3ncccn3)CC1)[C@]1(C(=O)Nc3ccc(C#CC4(O)CCCCCC4)cc31)[C@H]2c1ccc(OCCO)cc1 | 1.11
CCOC(=O)C1CCCCN1 (configuration not stated) | 0.542

q: Recorded z-score of CC[C@H]1C2=C3C(CC[C@H]4C(OCc5ccc(F)cc5C(F)(F)F)OC[C@](C)([C@@H]34)N(C(=O)OC(C)(C)C)C2)C(COC)C1COC (some centres not stated) , please.
a: -0.851

q: Recorded z-score of COc1ccc([Si](C)(C)[C@@H]2[C@@H](CC(=O)N(CCO)Cc3ccccc3)O[C@]3(C(=O)N(Cc4cccc(N5CCOC5=O)c4)c4ccccc43)[C@H]2C)cc1 , please.
a: 0.836

q: Recorded z-score of C=CCOC(=O)[C@H]1[C@@H]2C(=O)O[C@@H](c3ccccc3)[C@@H](c3ccccc3)N2[C@@H](c2ccc(OCCOC(=O)[C@H]3C[C@H]4C(=O)N[C@@H](CC(C)C)C(=O)N4[C@H]3c3cccc(OCCO)c3)cc2)[C@]12C(=O)Nc1ccc(I)cc12 , please.
a: 0.329

---

# protocol: mitochondrial membrane potential change in A549 cells, profiling panel, cell-based, JC-1 fluorescence, basal, 24 h, 100 nL (AID 1138);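 further: A549 lung adenocarcinoma cells under basal conditions with no added stimulus; test concentration not given here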
# condition-parameters: higher = more signal
# binning rule on z-score: range A (below -0.5), range B (-0.5 to below 0.3), range C (0.3 or more)

Below are worked cases with known answers.
compound | assigned-class
CCCNC(=O)[C@@H]1c2ccccc2C(=O)N(C(C)C)[C@H]1c1ccc(CO)cc1 | range C
C=CCC(OC(C)=O)[C@@H]1[C@@H](N(Cc2ccc(-c3cccc(C(F)(F)F)c3)o2)C(=O)c2ccc(-c3ccccc3)cc2)c2cc(OCCCO)ccc2N1C(=O)c1ccc2ccccc2n1 (some centres not stated) | range C
[N-]=[N+]=Nc1ccccc1C[C@]1(C(=O)N2CCOCC2)N=C(c2ccc(OCCCO)cc2)O[C@H]1c1ccccc1 | range C
COc1ccc([Si](C)(C)[C@@H]2[C@@H](CC(=O)N(CCO)Cc3ccccc3)O[C@]3(C(=O)N(Cc4cccc(N5C(=O)c6cccc7cccc5c67)c4)c4ccccc43)[C@H]2C)cc1 | range A
COC(=O)[C@@]1(Cc2ccc(F)cc2)[C@H]2c3cc(C(=O)N(C)C)n(Cc4cc(F)cc5c4OCOC5)c3C[C@H]2CN1C(=O)c1ccccc1 | range A

q: Place this compound in its band: CC(C)(C)OC(=O)CC[C@@]1(C(=O)NCc2ccccc2)N=C(c2ccc(OCCCO)cc2)O[C@@H]1c1ccccc1N=[N+]=[N-]
a: range A

q: Place this compound in its band: COCCOC(=O)N1C(=O)[C@@]2(c3cc(C#Cc4ccc(OC)cc4)ccc31)[C@H](c1ccccc1OCCO)N1[C@H](c3ccccc3)[C@H](c3ccccc3)OC(=O)[C@H]1[C@@H]2C(=O)N1CCCCCCC1
a: range A

---

# protocol: basal MM1S mitochondrial membrane potential changes, profiling panel, cell-based, JC-1 fluorescence, 24 h, 100 nL compound (AID 1170); further: test concentration not given here
# condition-parameters: higher = more signal
Listed below: z-score values for each entry.
Give the value as a plain number.

Below, 5 molecules whose answers are already recorded.
molecule | reported-value
NC(=O)N1C(=O)C2C(C1=O)C1C=C(CCCO)C2C(c2cccs2)N1Cc1cccc(OC(F)(F)F)c1 (stereo not drawn) | 1.37
COCCCNC(=O)[C@]1(CCS(=O)(=O)c2ccccc2)N=C(c2ccc(OCCCO)cc2)O[C@@H]1c1ccccc1N=[N+]=[N-] | -0.754
C=CCN1Cc2ccccc2[C@H]2OC(c3ccc(OCCCO)cc3)=N[C@@]2(CC=C)C1=O | -1.01
[N-]=[N+]=Nc1ccccc1C[C@]1(C(=O)N2CCOCC2)N=C(c2ccc(OCCCO)cc2)O[C@H]1c1ccccc1 | -0.438
C=C(/C(=C/C[C@H](OC(C)=O)c1cccc(OCCO)c1)c1cnc2ccccc2c1)C(C)C | -0.105

q: Recorded z-score of O=C(NCCCCCNC(=O)/C(Cc1ccccc1)=N/O)OCc1ccccc1 , please.
a: -0.877

q: Recorded z-score of CCCCCCCCCCC(O)C1C=CC2C(=O)N(C)C(=O)C2N1Nc1ccc([N+](=O)[O-])cc1[N+](=O)[O-] (stereo not drawn) , please.
a: -1.8

q: Recorded z-score of Cc1ccc(S[C@]2(C(=O)NCC(F)(F)F)CC(=O)N(Cc3ccccc3C(F)(F)F)[C@@H]2c2ccc(CO)cc2I)cc1 , please.
a: -2.22
